pIC50: −log10 of the molar value.
Literature roundup of HPK1 (Homo sapiens (Human), UniProt Q92918) data, read-out pIC50.

Please review the entries below; each comes with its answer.
- COc1cnccc1-n1nc2c(-c3ccc(N4CCN(C)CC4)cc3)n[nH]c2cc1=O: 6.30 to 7.30
- Cc1cc(-c2cnc(N)c(-n3cc(O)cn3)n2)cc2c1CCN(C)C2: 7.82

**Q:** GET /values?readout=pIC50&system=HPK1 (Homo sapiens (Human), UniProt Q92918)&item= CCn1cc2c(N3CC[C@@H](N)C3)c(NC(=O)c3ccc(=O)n(-c4c(F)cccc4F)n3)ccc2n1
**A:** > 7.00

**Q:** For the record CNc1ncc2c(n1)N1CCCN=C1C(c1cc(NC(=O)c3cc(C(F)(F)F)ccn3)ccc1C)=C2 , what value of pIC50 is listed for HPK1 (Homo sapiens (Human), UniProt Q92918)?
**A:** 5.00 to 7.00

**Q:** Param readout= pIC50; system= HPK1 (Homo sapiens (Human), UniProt Q92918); entry= CCS(=O)(=O)N1CCN(c2ccc(-c3n[nH]c4cc(=O)n(-c5c(C)cccc5F)nc34)cn2)CC1 ; returns value.
**A:** ≥ 7.30

**Q:** # value lookup — system HPK1 (Homo sapiens (Human), UniProt Q92918), readout pIC50, item COc1c(F)ccn2c(-c3ccc(Nc4ccc(N5CCC(O)CC5)cn4)c4c3CNC4=O)cnc12
**A:** > 7.00

* * *

For reference, the following IC50 results for HPK1 (Homo sapiens (Human)) were taken from various sources.

Use these answered entries as a reference point.
- Cc1ccn2c(-c3ccc(Nc4ccc(N5CCO[C@H](CO)C5)cn4)c4c3CNC4=O)cnc2n1: < 100 nM
- Cc1nc2c(N3CCC(N)C(F)(F)C3)c(NC(=O)c3ccc(=O)n(-c4c(F)cccc4F)n3)ccc2n1C (stereo not shown): < 100 nM
- O=C1NCc2c(-c3ccnc4ccnn34)ccc(Nc3ccc(N4CCNCC4)cn3)c21: > 1000 nM

Field: next molecule
**Q:** What reported IC50 corresponds to CNS(=O)(=O)c1cccc(-c2cc3c(-c4ccc5c(c4)OCC4CN(C)CCN54)n[nH]c3cc2C#N)c1F (stereo not shown) on HPK1 (Homo sapiens (Human))?
**A:** ≤ 10 nM

* * *

Reported IC50 on HPK1 (Homo sapiens (Human)) for assorted compounds, compiled from publications.

Here's what some known entries look like.
- CN(C)Cc1nc(Nc2ccc(-c3cnc4cc(F)ccn34)c3c2C(=O)NC3)ccc1C1(C#N)CCOCC1: < 100 nM
- O=C1NCCCN1c1cccc(-c2cnc3[nH]cc(C4CC4)c3c2Cl)n1: 2.4 nM
- CC(C)(O)[C@@H]1CN(c2ccc(Nc3ccc(-c4cnc5cnccn45)c4c3C(=O)NC4)nc2)CCO1: < 100 nM
- NC(=O)c1cnc(NCc2ccc(C(F)(F)F)cc2)nc1Nc1cccc2c1CCNC2=O: 404 nM
- COc1cccc(F)c1-n1nc2c(-c3ccc4c(c3)CN(CC(F)F)CC4)n[nH]c2cc1=O: 50 to 500 nM

**Q:** Short answer please: IC50, HPK1 (Homo sapiens (Human)), entry COc1cc(-c2cc(Nc3ccc(N4CCNCC4)cn3)c3c(=O)[nH]ccc3n2)c(F)cc1C(=O)N(C)C
**A:** ≤ 100 nM

**Q:** Recall the recorded IC50 for CN(C)C(C)(C)C1CN(c2ccc(Nc3cnc(-c4ccnc5c4ccn5C)c4c3C(=O)NC4)nc2)CCO1 (centres unmarked) with HPK1 (Homo sapiens (Human)) and state it.
**A:** < 100 nM

**Q:** Short answer please: IC50, HPK1 (Homo sapiens (Human)), entry CC(C)(C#N)c1ccc(-c2cc(Nc3ccc(N4CCC(O)CC4)cn3)c3c(=O)[nH]ccc3n2)c(F)c1
**A:** 100 to 1000 nM

* * *

Across several publications, the following IC50 results were reported for HPK1 (Homo sapiens (Human), UniProt Q92918).

Consider the reported IC50 for these molecules:
- O=C1NCc2c(-c3cnc4ccccn34)ccc(Nc3ccc(N4CCC(O)CC4)cn3)c21: < 100 nM
- C/C(Nc1ccn(CCN2CCOCC2)n1)=C1/C(=O)Nc2cnc(-c3cnccc3C)cc21: < 50 nM
- CN1CCN(c2ccc(Nc3ccc(-c4cnc5ccccn45)c4c3C(=O)NC4)nc2)CC1: < 100 nM
- Cc1[nH]c2ncccc2c1-c1ncc(Nc2ccc(N3CCN(C)CC3)cn2)c2c1CNC2=O: 100 to 1000 nM
- Cc1cccc(F)c1-n1nc2c(-c3ccc(N4CCC(N5CCOCC5)CC4)cc3)n[nH]c2cc1=O: ≤ 50 nM

**Q:** So what's the measured IC50 for this one? NC(=O)c1cnc(Nc2ccc3c(c2)COCC3)nc1Nc1cccc2c1CCNC2
**A:** 0.14 nM

**Q:** Would you kindly share the measured IC50 for Cc1cc(C#N)cc(F)c1-n1nc2c(-c3ccc(N4CCN(C(=O)C(C)O)CC4)cc3)n[nH]c2cc1=O (centres unmarked) ?
**A:** ≤ 50 nM

**Q:** # IC50 lookup, item COc1cccc(F)c1-c1ccc2c(c1)/C(=C(\C)Nc1ccc(N3CCN(C)CC3)cc1C)C(=O)N2
**A:** 100 to 500 nM

* * *

Compiled record: IC50 values for UniProt:Q92918 across several sources.
reportedMetric: IC50 (nM)

* COc1cc2c(cc1Nc1ncc(C(N)=O)c(Nc3ccccc3Br)n1)CN(S(=O)(=O)C(C)C)CC2 | 52.6

[P] Cc1cc(-c2cnc3[nH]cc(-c4ccc(C(=O)N(C)C)cc4)c3n2)cc2c1CCN(CCC(=O)N[C@H]1CC[C@H](O)CC1)C2
[Q] Cc1c(-c2cc3nc(Nc4ccc5c(c4)CNCCC5)ncc3c(N)c2F)cnc2c1NCCO2
[R] CCOc1ccccc1Nc1nc(Nc2cc3c(cc2OC)CCN(C)C3)ncc1C(N)=O
[S] Cc1c(-c2cc3nc(Nc4cnn(C5(C)CC5)c4Cl)ncc3c(N)c2F)cnc2c1NCCO2
[T] NC(=O)c1cnc(Nc2cnn(C3CCNCC3)c2)nc1NC1CCc2cc(F)c(F)cc21 (stereo not drawn)
**Q:** Provide the items ranked by increasing IC50. API: response body holds the labels in the requested order.
**A:** Q, R, S, T, P
(Q: 0.0066 nM, R: 0.03 nM, S: 0.38 nM, T: 40.6 nM, P: 65 nM)

* * *

// read-out IC50, gathered for HPK1 (Homo sapiens (Human)) from published studies
reportedMetric: IC50 (nM)

Study these solved cases before continuing.
- CC(N)c1cccc(Nc2nc(Nc3cc4c(cc3F)CCN(C)C4)ncc2C(N)=O)c1 (centres unmarked): 0.24
- COc1cc2c(cc1Nc1ncc3c(N)cc(N4C(=O)OC[C@@H]4C)cc3n1)CN(C)CC2: 0.0757

[1] Cc1c(-c2c(F)c(N)c3cnc(Nc4ccc5c(c4)CN(C)CC54CC4)nc3c2C)cnc2c1NCCO2
[2] Cc1c(-c2cc3nc(Nc4cnn(CS(C)(=O)=O)c4)ncc3c(N)c2F)cnc2c1NCCO2
**Q:** # compare IC50 for 1 vs 2 ; return the one with the smaller value Please identify the chosen entry by its label.
**A:** 1
(1: 0.0706 nM, 2: 0.13 nM)

* * *

IC50 values for HPK1 (Homo sapiens (Human), UniProt Q92918), compiled from several publications.

Example entries and their recorded answers appear below.
- NC(=O)c1cnc(Nc2cccc3c2OCC3)nc1Nc1ccccc1Br: 713 nM
- N[C@@H]1CCN(c2c(NC(=O)c3ccc(=O)n(-c4c(F)cccc4F)n3)ccc3c2cnn3C2CCCC2)C1: < 100 nM
- COc1cc2c(cc1Nc1ncc3ccc(-c4ccc(F)cc4CN)cc3n1)CN(C)CC2: 403 nM
- COc1cc2c(cc1Nc1ncc3ccc(NCc4cnsn4)cc3n1)CN(C)CC2: 38.3 nM
- COc1cc2c(cc1Nc1ncc(C(N)=O)c(Nc3cn(C)nc3C(F)(F)F)n1)CN(C)CC2: 11.8 nM

**Q:** Form: Entry = Cn1c(C2(C(F)(F)F)CC2)nc2c(N3C[C@H](N)C(C)(C)C3)c(NC(=O)c3ccc(=O)n(-c4c(F)cccc4F)n3)ccc21 | System = HPK1 (Homo sapiens (Human), UniProt Q92918) | IC50 = ____
**A:** < 100 nM

**Q:** What measured IC50 is associated with CN1CCN2c3ccc(-c4n[nH]c5cc(C#N)c(-c6cccc(S(C)(=O)=O)c6F)cc45)cc3OCC2C1 (centres unmarked) on HPK1 (Homo sapiens (Human), UniProt Q92918)?
**A:** ≥ 100 nM

**Q:** Record CN1CCc2c(cc(Nc3ncc4ccnc(N5CCCCC5)c4n3)c(=O)n2C)C1 : what is its IC50 with HPK1 (Homo sapiens (Human), UniProt Q92918)?
**A:** 1.47 nM

**Q:** Field: IC50 (HPK1 (Homo sapiens (Human), UniProt Q92918)). Entry: COc1cc2c(cc1Nc1ncc(C(N)=O)c(Nc3ccccc3Br)n1)CN(C1COC1)CC2
**A:** 1.42 nM

**Q:** Query IC50 on HPK1 (Homo sapiens (Human), UniProt Q92918) for COCC1CN(c2ccc(Nc3ccc(-c4ncnc5c4ccn5C)c4c3C(=O)NC4)nc2)CCO1 (stereo in doubt)
**A:** < 100 nM

**Q:** # value lookup — system HPK1 (Homo sapiens (Human), UniProt Q92918), readout IC50, item O=C1NCc2c(-c3cnco3)ncc(Nc3ccc(N4CCNCC4)cn3)c21
**A:** 1000 to 5000 nM

**Q:** Lab note: need IC50 with HPK1 (Homo sapiens (Human), UniProt Q92918) for entry Cc1nn(C(C)C)c2ccc(NC(=O)c3ccc(=O)n(-c4c(F)cccc4F)n3)c(N3C[C@H](N)C4(CC4)C3)c12 , please look it up.
**A:** < 100 nM

**Q:** Give the reported IC50 for N[C@H]1CN(c2c(NC(=O)c3ccc(=O)n(-c4c(F)cccc4F)n3)ccc3nn(C4(C(F)(F)F)CC4)cc23)CC12CC2 (single isomer, unassigned) (system: HPK1 (Homo sapiens (Human), UniProt Q92918)).
**A:** < 100 nM
